Just for reference, the supplement of paper PMC10065799 is where these values come from.

biological target: Jak2 (UniProt O60674); test: phosphorylation enrichment, bacterial display (enrichment ratio); higher = better substrate or ligand; peptides without Tyr show the background;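 also: 11-residue human phosphosite peptides and single-mutation variants displayed on the E. coli surface, counted by deep sequencing, each peptide's frequency after selection divided by its frequency in the unselected input library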;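 also: frequency after pTyr selection over input frequency; kinase dosed for 20-30% of maximal phosphorylation in three min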
Sequence (O60674 whole entry, looked up): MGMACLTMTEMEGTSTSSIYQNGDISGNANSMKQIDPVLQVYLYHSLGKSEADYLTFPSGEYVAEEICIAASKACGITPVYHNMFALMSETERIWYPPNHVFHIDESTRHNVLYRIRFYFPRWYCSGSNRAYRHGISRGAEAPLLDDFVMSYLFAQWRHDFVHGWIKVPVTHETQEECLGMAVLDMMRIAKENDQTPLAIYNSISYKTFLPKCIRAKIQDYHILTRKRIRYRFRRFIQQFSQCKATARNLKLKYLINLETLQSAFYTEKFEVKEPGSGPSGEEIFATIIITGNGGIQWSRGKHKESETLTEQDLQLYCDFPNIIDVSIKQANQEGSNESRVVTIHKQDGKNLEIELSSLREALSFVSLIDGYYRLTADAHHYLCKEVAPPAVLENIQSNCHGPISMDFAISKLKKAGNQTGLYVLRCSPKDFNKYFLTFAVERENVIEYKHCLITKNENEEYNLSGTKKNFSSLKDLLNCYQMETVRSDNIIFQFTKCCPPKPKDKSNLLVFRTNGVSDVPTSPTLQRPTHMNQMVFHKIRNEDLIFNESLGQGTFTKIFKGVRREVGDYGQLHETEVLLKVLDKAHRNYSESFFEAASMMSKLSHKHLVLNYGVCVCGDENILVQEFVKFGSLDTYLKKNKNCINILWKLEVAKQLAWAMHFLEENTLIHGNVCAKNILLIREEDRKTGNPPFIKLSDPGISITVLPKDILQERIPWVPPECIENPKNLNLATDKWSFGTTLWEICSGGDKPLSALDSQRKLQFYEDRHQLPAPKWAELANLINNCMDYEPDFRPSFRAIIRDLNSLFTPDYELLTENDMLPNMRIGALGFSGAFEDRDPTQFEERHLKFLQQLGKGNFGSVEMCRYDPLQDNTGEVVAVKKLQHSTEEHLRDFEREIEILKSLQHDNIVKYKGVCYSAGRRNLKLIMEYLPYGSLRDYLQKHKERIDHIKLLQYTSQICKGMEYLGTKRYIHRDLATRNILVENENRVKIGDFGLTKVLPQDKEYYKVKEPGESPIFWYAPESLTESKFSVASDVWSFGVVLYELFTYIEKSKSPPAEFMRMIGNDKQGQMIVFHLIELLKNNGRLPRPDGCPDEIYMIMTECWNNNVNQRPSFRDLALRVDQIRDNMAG
reported-metric: phosphorylation enrichment
Could you respond with only the numeric value?

Field: phosphorylation enrichment (Jak2 (UniProt O60674)). Entry: YRTGHYLCNAC [GATA1_Y223_D218Y] 0.424

Same question, YAKSVYWENTL [NUP107_Y296] this time 0.821

Same question, REEIKYMLWLS [OTC_Y55_G50R] this time 1.15

Same question, GTHCHYKAPTV [FZD9_Y569] this time 0.667

Same question, CTTIHYTYMCN [TP53_Y234_N235T] this time 1.04

Same question, SILAVYSKDNY [PANK2_Y400] this time 0.549

Same question, LSVEIHDRREY [ITGB7_Y753_Y753H] this time 1.12

Same question, SENAFYLSPDI [COL6A3_Y2827] this time 1.68

Same question, PFRSIYFSSPK [MPG_Y75_YF] this time 0.553

Same question, CKSVHYDLVFL [COL22A1_Y37] this time 1.19

Same question, ADKSAYLMGVN [MYH7_Y386_L390V] this time 0.58

Same question, IRGNMYYENSY [EGFR_Y112] this time 0.55

Same question, FLRKEYGGLNV [CBR3_Y81] this time 0.615

Same question, GKGGSYSKAES [HLA-E_Y341_W346S] this time 0.386

Same question, DKATEYIQFVR [MAX_Y70_M74V_YF] this time 0.55

Same question, LYSNAYLNDLA [ALDH1A1_Y119] this time 0.667

Same question, VDSIEYEVASQ [SLC7A7_Y7_T5I] this time 1.36

Same question, LATINYPFEKG [NDUFS8_Y84_P79L] this time 0.642

Same question, QSKGIYYVQLE [MGAT4B_Y262] this time 1.47

Same question, NHYKIYNLYAE [PTEN_Y68_C71Y] this time 0.664

Same question, FSCLPCGRLAY [SLC52A2_Y305_Y305C] this time 0.724

Same question, IFHENYNAGTY [CFI_Y421] this time 0.783

Same question, TDLAFYLVCKG [ASL_Y376_R379C_YF] this time 1.57

Same question, MSRDVYSTDCF [NTRK2_Y702_Y706C_YF] this time 0.855

Same question, EVKAQYEDIAQ [KRT1_Y358] this time 1.06

Same question, CQASLYPSNHD [LRIG1_Y996_G993A] this time 1.01

Same question, FRNSLYAPDFS [FAM92A_Y226_YF] this time 0.812

Same question, PPEFSYGLQTQ [SRA1_Y35_Q32E] this time 0.997

Same question, KKYPDYIQIAM [SGMS2_Y59] this time 1.46

Same question, AAVLNYKAWRD [GRIN2A_Y737_G740W] this time 0.646

Same question, PPGRSYSPCDF [TNS1_Y793_Y796C_YF] this time 0.679

Same question, SAVVPYEPPEV [TP53_Y220_V216A] this time 0.998

Same question, ELAKFYKLHHI [AK7_Y391_N389K_YF] this time 0.645

Same question, LPKEQYLYTKE [AFG3L2_Y614] this time 1.41

Same question, YGLQAYTKVKT [ALDH2_Y502_E504K] this time 1.23

Same question, QQLDKYQELLD [LMNA_Y359_E358K] this time 1.33

Same question, IHSGIYFKPES [L2HGDH_Y102_YF] this time 2.59

Same question, PRARTYCFKQE [KLHDC9_Y175_S171R_YF] this time 0.435

Same question, TTANRYLKVSD [MYOM2_Y871] this time 0.492

Same question, RSAGKDDVFLI [MECP2_Y120_Y120D_YF] this time 0.706

Same question, AMIADYMFWLG [SPATA16_Y290] this time 3.71

Same question, SREALYNEMDP [CACNA1A_Y794] this time 1.14

Same question, HQPGEYIFHAE [FLT3_Y416] this time 1.29

Same question, KVDKEYEVRVR [GHR_Y226] this time 0.587

Same question, KIPGRYFETGS [PAX2_Y72_L69P_YF] this time 0.783

Same question, PKEQRYSFLQN [GH1_Y68_K67R] this time 1.62

Same question, DFAIVYGTIIL [GPR179_Y460_G455D] this time 1.16

Same question, ENPAKYDDIKK [GAPDH_Y255_K251N] this time 0.829

Same question, RGDIFYTSKLW [AKR1C3_Y81_E77G] this time 1.33

Same question, RNVLVYDKLNV [ROR2_Y624] this time 0.632

Same question, APGNAYGDAGF [SYP_Y250_D248N_YF] this time 0.52

Same question, KTDKKYLMIKE [BAG3_Y451_E455K] this time 0.636

Same question, IFRAAYFGVFD [SLC25A4_Y191_YF] this time 0.891

Same question, AESPEHVHMFT [FAM111A_Y511_Y511H_YF] this time 0.754

Same question, GEEIKYTLWLS [OTC_Y55_M56T] this time 1.21

Same question, ILGTFYETGSI [PAX2_Y73_R71T_YF] this time 0.871

Same question, PLQNTYNYNVL [SLC4A1_Y553_K551N] this time 0.67
